test system: MX-1 breast xenograft, nude mice, tumor weight T/C; assay: NCI In Vivo Anticancer Drug Screen. Data for tumor model Human Mammary Carcinoma MX-1 Xenograft (intrarenal inoculation) in NU/NU Swiss (nude) mice; settings: endpoint: mean tumor weight change; dose: 20.0 mg/kg/injection; schedule: Q04DX003 (sc); vehicle: Klucel (hydroxypropylcellulose) (HPC); higher = larger tumour
Records with an inconclusive call do not appear.
PROPERTY: T/C

The following compounds have reported results that may help.
> print(dat)
                                   compound  property     observed.value
1               O=C1C(=O)c2cccnc2-c2ncccc21       T/C    60 % of control
2  NC(Cc1ccc(N(CCCl)CCCl)cc1)C(=O)O (centres undefined)       T/C  -100 % of control
3  COC1C(C)OC(OC2CC(C)(O)Cc3cc4c(c(O)c32)C(=O)c2c(O)cc3c(c2C4=O)OC2OC3(C)C(O)C(N(C)C)C2O)C(OC)C1(C)OC (centres undefined)       T/C    94 % of control

In the following, a different compound is considered.
# input Entry `c1ccc2c(NCCCCCCNc3c4ccccc4nc4ccccc34)c3ccccc3nc2c1` has what T/C?
# output 241 % of control

====

Measured T/C of individual entries
Tested on: MX-1 breast xenograft, nude mice, tumor weight T/C
Test: NCI In Vivo Anticancer Drug Screen. Data for tumor model Human Mammary Carcinoma MX-1 Xenograft (intrarenal inoculation) in NU/NU Swiss (nude) mice
Details: endpoint: mean tumor weight change; dose: 37.5 mg/kg/injection; schedule: Q04DX003 (sc); vehicle: saline with Tween-80; higher = larger tumour
Method: The antitumor activity of compounds was measured in mice bearing transplantable tumors. Survival or tumor size were measured and the results are expressed as the measurement made in the treated group (T) divided by the measurement made in the vehicle treated control group (C). The tumor model used in this assay is Human Mammary Carcinoma MX-1 Xenograft (intrarenal inoculation) in NU/NU Swiss (nude) mice
Inconclusive results are not listed.

# count of solved cases: 3
> print(dat)
                                   compound   observed.value
1  O=C1C2CC=CCC2C(=O)N1SC(Cl)(Cl)Cl (configuration not stated)  85 % of control
2                COC1=CC(=O)C(OC)=C(OC)C1=O  86 % of control
3  Nc1nc(N)c2c(Cl)c(CNc3ccc(Cl)c(Cl)c3)ccc2n1  87 % of control

# input Suppose we examine the compound `Cn1c2nc(=O)n(-c3ccccc3)c(=O)c-2nc2c1CCCC2` ; what T/C value has been reported?
# output 104 % of control

# input Proceed to `COc1ccc(S(=O)(=O)N=N/C=C2\C=CC=CN2O)cc1OC`
# output 81 % of control

# input What do you have for CCOC(=O)C(CC(C)C)NC(=O)C(Cc1ccc(N(CCCl)CCCl)cc1)NC(C)=O (configuration not stated) ?
# output 50 % of control

# input And the next one, `Nc1nc2c(C(=O)N3CCCC3)nnn2c2ccccc12` ?
# output 35 % of control

# input Now give it for `C=C1C(=O)O[C@@H]2[C@H](O)[C@@H](C)[C@@H]3C=CC(=O)[C@@]3(C)[C@H](OC(=O)C=C(C)C)[C@H]12` too.
# output 84 % of control
